Data credit: ChEMBL document CHEMBL4190234

- Test system: HOP-92
- Assay Comment: Growth inhibition of human HOP92 cells at 10 uM incubated for 48 hrs by sulforhodamine B assay relative to control
- Format: functional
- Details: HOP-92, 48 h, read-out: GI
Listed below: inhibition of growth at 10 µM values for each entry.
Quantity Kind: inhibition of growth at 10 µM (%)

| Molecule | Readout Qualifier | Reported Value |
| --- | --- | --- |
| CCOC(=O)C1=C(C)NC(SCc2nnc(-c3ccc(C)cc3)o2)=NC1c1ccc(F)cc1 (stereo not drawn) | = | 37 |
| CCOC(=O)C1=C(C)NC(SCc2nnc(-c3ccc(OC)cc3)o2)=NC1c1ccc(F)cc1 (stereo not drawn) | = | 21.4 |
| CC(=O)C1=C(C)NC(SCc2nnc(-c3ccc(Cl)cc3)o2)=NC1c1ccc(F)cc1 (stereo not drawn) | < | 10 |
| CCOC(=O)C1=C(C)NC(SCc2nnc(-c3ccc(Cl)cc3)o2)=NC1c1ccccc1 (stereo not drawn) | = | 40.1 |
| CCOC(=O)C1=C(C)NC(SCc2nnc(-c3ccc(Cl)cc3)o2)=NC1c1ccc(Br)cc1 (stereo not drawn) | = | 42.2 |
| COc1ccc(-c2nnc(CSC3=NC(c4ccc(F)cc4)C(C(C)=O)=C(C)N3)o2)cc1 (stereo not drawn) | = | 16.5 |
| CC(=O)C1=C(C)NC(SCc2nnc(-c3ccc(Cl)cc3)o2)=NC1c1ccc(Cl)cc1 (stereo not drawn) | = | 26.5 |
| CC(=O)C1=C(C)NC(SCc2nnc(-c3ccc(C)cc3)o2)=NC1c1ccc(F)cc1 (stereo not drawn) | < | 10 |
| CCOC(=O)C1=C(C)NC(SCc2nnc(-c3ccc(Cl)cc3)o2)=NC1c1ccc(OC)cc1 (stereo not drawn) | = | 17.6 |
| CCOC(=O)C1=C(C)NC(SCc2nnc(-c3ccc(Cl)cc3)o2)=NC1c1cccc(Cl)c1 (stereo not drawn) | = | 49 |
| CCOC(=O)C1=C(C)NC(SCc2nnc(-c3ccc(Cl)cc3)o2)=NC1c1ccc(Cl)cc1Cl (stereo not drawn) | = | 73.6 |
| CCOC(=O)C1=C(C)NC(SCc2nnc(-c3ccc(Cl)cc3)o2)=NC1c1ccc(F)cc1 (stereo not drawn) | = | 27.8 |
| CCOC(=O)C1=C(C)NC(SCc2nnc(-c3ccc(Cl)cc3)o2)=NC1c1ccc(Cl)cc1 (stereo not drawn) | = | 35.9 |
